# growth annotations
# System: SNB-19 CNS
# test.description: NCI-60 one-dose screen, 48 h (100 = growth as untreated, 0 = no growth, -100 = all killed)
# measurement.context: 10 µM unless noted
# Experimental: Growth inhibition of the SNB-19 human tumor cell line is measured as a screen for anti-cancer activity. Cells are grown in 96 well plates and exposed to the test compound for 48 hours. Compounds are tested at a single concentration, which is 10^-5 M for most compounds. The reported endpoint is percent growth (GI% or GIPRCNT), where numbers from 0 - 100% represent growth inhibition, and numbers from -100% - 0 represent cell death. For example, a value of 40 represents 60% growth inhibition. […]
The panel holds about 83,000 compounds, 20% with a hit somewhere; the sample as a whole holds those more often.

molecule: C[C@]12CC[C@H]3[C@@H](CC=C4C[C@@H](O)CC[C@@]43C)[C@@H]1CC[C@@H]2[C@](C)(O)CCc1cccnc1
growth (%): 71.4
--
molecule: O=C(CSc1nnc(-c2cccs2)n1-c1ccccc1)Nc1ccccc1F
growth (%): 83.2
--
molecule: Brc1ccc2[nH]cc(-c3nn4cc(-c5nccs5)nc4s3)c2c1
growth (%): 61.1
--
molecule: CC(=C(c1ccc(OCCCN(C)C)cc1)c1ccc(OCCCN(C)C)cc1)c1ccc(Cl)cc1
growth (%): 92.9
--
molecule: O=C(O)c1ccc(-n2c(=O)n(-c3cccc(C(F)(F)F)c3)c(=O)c3cc(-c4ccc(F)cc4F)ccc32)cc1
growth (%): 13.4
--
molecule: CCOP(=O)(OCC)OC[C@]12CCC(C)(C)CC1C1=CC[C@@H]3[C@@]4(C)CCCNC(C)(C)[C@@H]4CC[C@@]3(C)[C@]1(C)CC2 (stereo partly drawn)
growth (%): 87
--
molecule: O=S(=O)(Oc1ccc(-c2cn3ccoc3n2)cc1)c1cccc(C(F)(F)F)c1
growth (%): 95.2
--
molecule: CC(C)(C)OC(=O)NCc1ccc(CNc2c([N+](=O)[O-])cnc3ccccc23)cc1
growth (%): 70.8
